B1: TPR t1 (parent)
chain: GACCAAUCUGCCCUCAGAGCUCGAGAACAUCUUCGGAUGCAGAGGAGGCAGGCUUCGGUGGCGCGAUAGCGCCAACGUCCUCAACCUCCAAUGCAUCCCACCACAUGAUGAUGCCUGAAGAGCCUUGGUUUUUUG

Variants of: B1
method_notes: polymerase ribozyme fitness, log enrichment relative to wild type (log ratio); higher = more active; in vitro selection for triplet polymerase activity
Classification scheme (polymerase ribozyme fitness (log ratio)): 0: < -3; 1: ≥ -3 and < -2; 2: ≥ -2

Reference set, count: 4
A74U C80U C82G :: 2
G48U C86A C115U G120C :: 1
C56U A83C A121U G127U U133G :: 2
G23A C64G C115U C123G :: 0

Query: Returns: class label. Input: G71U G93A C104U
Reply: 2
